Listed next: entries and their corresponding phosphorylation enrichment.
biological target: Hck (UniProt P08631); test: phosphorylation enrichment, bacterial display (enrichment ratio); higher = better substrate or ligand; peptides without Tyr show the background;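 further: 11-residue human phosphosite peptides and single-mutation variants displayed on the E. coli surface, counted by deep sequencing, each peptide's frequency after selection divided by its frequency in the unselected input library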;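 further: frequency after pTyr selection over input frequency; kinase dosed for 20-30% of maximal phosphorylation in three min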
Sequence (P08631 whole entry, looked up): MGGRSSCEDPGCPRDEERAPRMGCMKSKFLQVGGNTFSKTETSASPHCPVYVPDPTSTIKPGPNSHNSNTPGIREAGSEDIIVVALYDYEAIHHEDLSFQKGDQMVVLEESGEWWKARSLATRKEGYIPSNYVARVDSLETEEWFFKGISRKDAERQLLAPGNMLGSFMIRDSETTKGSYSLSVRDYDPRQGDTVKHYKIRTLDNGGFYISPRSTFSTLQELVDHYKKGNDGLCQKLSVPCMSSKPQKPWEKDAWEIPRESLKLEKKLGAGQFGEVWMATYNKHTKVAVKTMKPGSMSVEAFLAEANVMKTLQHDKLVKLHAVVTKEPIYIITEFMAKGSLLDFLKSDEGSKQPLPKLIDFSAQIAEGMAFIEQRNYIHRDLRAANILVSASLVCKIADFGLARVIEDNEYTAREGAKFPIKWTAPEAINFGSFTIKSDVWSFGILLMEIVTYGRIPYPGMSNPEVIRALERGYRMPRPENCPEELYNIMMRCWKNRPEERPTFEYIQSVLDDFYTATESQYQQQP
I'd appreciate a reply containing only the number, no unit.

Known results for sequences:
[
  {
    "SEQUENCE_RECORD": "LSIQCYLRALD [HMGCS2_Y262]",
    "phosphorylation enrichment": 1.12
  },
  {
    "SEQUENCE_RECORD": "SRDPFYEMLAA [CYTH1_Y382]",
    "phosphorylation enrichment": 4.88
  },
  {
    "SEQUENCE_RECORD": "VYAADYYKLLG [ROR2_Y645]",
    "phosphorylation enrichment": 1.28
  },
  {
    "SEQUENCE_RECORD": "AIFWRYSKFFD [SH3PXD2B_Y45_R43W_YF]",
    "phosphorylation enrichment": 0.41
  },
  {
    "SEQUENCE_RECORD": "VTAALYGCLYE [BTD_Y536_R538C]",
    "phosphorylation enrichment": 4.01
  }
]

Q) Which measured phosphorylation enrichment value corresponds to ERMKVYVPIGF [EPHX1_Y393_T396I] ?
A) 0.622

Q) Same question for QLLIEYPPEEV [ZZZ3_Y670_K669E] please.
A) 0.534
